# System: HMC1.2 cells
// boundary case: GI50 equal to 4 µM maps to NO; strictly smaller maps to YES

Use these answered entries as a reference point.
INSERT INTO measurements (compound, assignedcategory) VALUES
  ('CC(=O)Nc1nc2cc(-c3cc(NC(=O)c4ccc(CN5CCCC(N(C)C)C5)c(C(F)(F)F)c4)ccc3C)cnc2s1 (centres unmarked) [7g]', 'NO'),
  ('Cc1ccc(NC(=O)c2ccc(N3CCOCC3)c(C(F)(F)F)c2)cc1-c1cnc2sc(N)nc2c1 [6l]', 'NO'),
  ('Cc1ccc(NC(=O)c2cc(N3CCOCC3)cc(C(F)(F)F)c2)cc1-c1cnc2sc(N)nc2c1 [6n]', 'NO');

is_below(GI50, 4 µM) for Cc1ccc(NC(=O)c2ccc(N(C)C)c(C(F)(F)F)c2)cc1-c1cnc2sc(N)nc2c1 [6k] ? YES

Same read-out for Cc1cccc(C(=O)Nc2ccc(C)c(-c3cnc4sc(N)nc4c3)c2)c1 [6e] ? NO
